Attribution: ChEMBL document CHEMBL4725388

subject_of_test: Protein disulfide-isomerase (Homo sapiens)
Sequence (P07237 whole entry): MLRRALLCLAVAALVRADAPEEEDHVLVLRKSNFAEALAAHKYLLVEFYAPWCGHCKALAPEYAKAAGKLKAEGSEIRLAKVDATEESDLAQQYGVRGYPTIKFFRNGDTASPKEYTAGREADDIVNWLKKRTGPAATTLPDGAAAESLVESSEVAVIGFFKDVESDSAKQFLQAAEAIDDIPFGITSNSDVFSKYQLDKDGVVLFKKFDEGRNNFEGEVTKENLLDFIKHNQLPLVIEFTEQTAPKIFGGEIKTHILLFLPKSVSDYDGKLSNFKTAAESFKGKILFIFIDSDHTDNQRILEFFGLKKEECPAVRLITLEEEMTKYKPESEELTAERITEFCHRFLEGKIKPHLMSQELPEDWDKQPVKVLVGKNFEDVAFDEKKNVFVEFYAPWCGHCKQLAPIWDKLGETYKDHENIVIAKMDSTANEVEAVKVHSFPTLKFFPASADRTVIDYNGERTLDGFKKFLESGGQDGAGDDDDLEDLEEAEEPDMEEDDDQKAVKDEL
experiment_notes: Inhibition of recombinant human wild-type N-terminal His-tagged PDIA1 expressed in Escherichia coli strain BL21(DE3) using bovine insulin as substrate preincubated for 1 hr followed by substrate addition
measurement_type: IC50 (nM)

A = Oc1cc2c(cc1C(c1ccc(F)cc1)N1CCCCC1)OCO2 (stereo unspecified)
B = Oc1cc2c(cc1C(c1ccc3c(c1)OCO3)N1CCCC1)OCO2 (stereo unspecified)
Name the one with the greater IC50 value, either A or B as given. Return value: the label identifying the chosen record.
A

----------
subject_of_test: Protein disulfide-isomerase (Homo sapiens)
experiment_notes: Inhibition of recombinant human wild-type N-terminal His-tagged PDIA1 expressed in Escherichia coli strain BL21(DE3) using bovine insulin as substrate preincubated for 1 hr followed by substrate addition
pIC50: −log10 of the molar value.
measurement_type: pIC50

Answered examples (6):
compound	measurement_type	assay_result
Oc1cc2c(cc1C(Nc1ccccn1)c1ccc3c(c1)OCO3)OCO2 (stereo unspecified)	pIC50	7.14
COc1cc(C(c2cc3c(cc2O)OCO3)N2CCCCC2)cc(OC)c1OC (stereo unspecified)	pIC50	6.15
COc1cccc(C(Nc2ccccn2)c2ccc3cccnc3c2O)c1 (stereo unspecified)	pIC50	5.54
Oc1ccc2[nH]ncc2c1C(c1ccc(-c2cncnc2)cc1)N1CCCCC1 (stereo unspecified)	pIC50	6.08
Cc1ccnc(NC(c2cccc(F)c2)c2ccc3cccnc3c2O)c1 (stereo unspecified)	pIC50	6.46
Oc1c(C(c2ccc(F)cc2)N2CCCCC2)ccc2scnc12 (stereo unspecified)	pIC50	6.24

A = COc1cccc(C(Nc2ncccn2)c2cc3c(cc2O)OCO3)c1O (stereo unspecified)
B = Oc1c(C(c2ccc(F)cc2)N2CCNCC2)ccc2cncnc12 (stereo unspecified)
Decide: A or B , by lowest recorded pIC50. Return value: the label identifying the chosen record.
A

I = O=[N+]([O-])c1ccc(C(c2c(O)ccc3[nH]ncc23)N2CCCCC2)cc1 (stereo unspecified)
II = Oc1ccc2[nH]ccc2c1C(c1ccc(F)cc1)N1CCCCC1 (stereo unspecified)
III = Cc1ccnc(NC(c2ccc(F)cc2)c2ccc3cccnc3c2O)c1 (stereo unspecified)
IV = Oc1c(C(c2ccc(F)cc2)N2CCCCC2)ccc2c1OCCO2 (stereo unspecified)
Order field: pIC50 | Direction: descending (largest first) Answer by naming the labels in the order asked.
III, IV, I, II

A = Oc1cc2c(cc1C(c1ccc3c(c1)OCO3)N1CCCCC1)OCO2 (stereo unspecified)
B = Oc1c(C(c2ccc(F)cc2)N2CCCCC2)ccc2nccnc12 (stereo unspecified)
Name the one with the greater pIC50 value, either A or B as given. Return value: the label identifying the chosen record.
A

A = COc1ccc(C(Nc2ncccn2)c2cc3c(cc2O)OCO3)cc1 (stereo unspecified)
B = Oc1c(C(c2ccc(F)cc2)N2CCCCC2)ccc2ccoc12 (stereo unspecified)
Name the one with the greater pIC50 value, either A or B as given. Return value: the label identifying the chosen record.
B

P = COc1cccc(C(c2cc3c(cc2O)OCO3)N2CCCC2)c1O (stereo unspecified)
Q = COc1cc(C(Nc2ccc(C)cn2)c2ccc3cccnc3c2O)cc(OC)c1O (stereo unspecified)
R = COc1cccc(C(c2cc3c(cc2O)OC(F)(F)O3)N2CCOCC2)c1OC (stereo unspecified)
Order field: pIC50 | Direction: descending (largest first) Answer by naming the labels in the order asked.
Q, R, P
(Q: 6.74, R: 6.29, P: 5.78)

a = Oc1cccc(C(Nc2ccccn2)c2ccc3cccnc3c2O)c1Cl (stereo unspecified)
b = O=C(O)c1ccccc1NC(c1ccccc1)c1ccc2cccnc2c1O (stereo unspecified)
c = Oc1ccc2[nH]ncc2c1C(c1ccc(C(F)(F)F)cc1)N1CCCCC1 (stereo unspecified)
d = COc1cc(C(Nc2ccccn2)c2cc3c(cc2O)OCO3)cc(OC)c1O (stereo unspecified)
Order field: pIC50 | Direction: descending (largest first) Answer by naming the labels in the order asked.
d, a, c, b

1 = CC(=O)c1cc2ccc(C(c3ccc(F)cc3)N3CCCCC3)c(O)c2o1 (stereo unspecified)
2 = O=[N+]([O-])c1ccc(NC(c2ccccc2)c2ccc3cccnc3c2O)cc1 (stereo unspecified)
3 = Oc1cc2c(cc1C(c1ccc(F)cc1)n1ccnc1)OCO2 (stereo unspecified)
Please order the records by their reported pIC50, lowest number first. Answer by naming the labels in the order asked.
1, 3, 2

I = Cc1cc(C)c(C(Nc2ccccn2)c2ccc3cccnc3c2O)c(C)c1 (stereo unspecified)
II = COc1ccc(C(c2cc3c(cc2O)OCO3)N2CCCCC2)cc1 (stereo unspecified)
III = Oc1c(C(Nc2ccccc2)c2ccccc2)ccc2cccnc12 (stereo unspecified)
IV = COc1ccc(C(c2cc3c(cc2O)OCO3)N2CCCC2)c(OC)c1 (stereo unspecified)
Please order the records by their reported pIC50, lowest number first. Answer by naming the labels in the order asked.
II, IV, I, III

I = Oc1ccc2[nH]ncc2c1C(c1ccc(-n2cccc2)cc1)N1CCCCC1 (stereo unspecified)
II = COc1cc(C(c2cc3c(cc2O)OCO3)N2CCCC2)cc(OC)c1OC (stereo unspecified)
Name the one with the greater pIC50 value, either I or II as given. Return value: the label identifying the chosen record.
II
(II: 6.74, I: 6.54)
